Target: CRTH2 (Homo sapiens)
Construct: expressed in transfected cells; host or cells: CHO cells
Sequence (Q9Y5Y4 1-395): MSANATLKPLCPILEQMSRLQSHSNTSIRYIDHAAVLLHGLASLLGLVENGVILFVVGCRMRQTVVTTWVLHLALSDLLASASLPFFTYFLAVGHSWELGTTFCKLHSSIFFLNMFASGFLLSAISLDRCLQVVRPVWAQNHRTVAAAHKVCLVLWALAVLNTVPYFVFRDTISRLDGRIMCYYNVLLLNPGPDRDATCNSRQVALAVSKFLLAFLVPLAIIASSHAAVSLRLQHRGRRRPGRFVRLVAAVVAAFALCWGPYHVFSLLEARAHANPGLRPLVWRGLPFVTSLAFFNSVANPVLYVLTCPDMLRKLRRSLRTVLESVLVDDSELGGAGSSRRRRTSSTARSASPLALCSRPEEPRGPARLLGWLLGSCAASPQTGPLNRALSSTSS
Experiment: [35S]GTPγS binding assay on CHO-CRTH2 cell membranes
Format: biochemical
Settings: in presence of a fixed concentration of PGD2 (EC80); read-out: IC50 ([35S]GTPγS, antagonist)
experimental.readout: IC50 (nM)
The answer is to be given in nM; state only the numeric part.

Briefly, IC50 measured for CS(=O)(=O)c1ccc(CN(C(=O)c2ccccc2)c2cc(F)cc(-c3nnn[nH]3)c2)cc1 [Example 108] : 22.4
